The reader will find reported degree of damage, Amaranthus values listed item by item below.
Test system: Amaranthus
Assay: Post-emergence test/greenhouse, Amaranthus
Assay type: in vivo
Conditions: greenhouse, 30 g of ai./ha, after three weeks
Measurement kind: degree of damage, Amaranthus (%)

[[record]]
molecule = "CCSc1nn(C(=O)NS(=O)(=O)c2c(C)cccc2C(=O)OC)c(=O)n1C [Example 141]"
endpoint_result = 100

[[record]]
molecule = "COC(=O)c1cccc(C)c1S(=O)(=O)NC(=O)n1nc(SCCF)n(C2CC2)c1=O [Example 151]"
endpoint_result = 95

[[record]]
molecule = "COC(=O)c1scc(C)c1S(=O)(=O)NC(=O)n1nc(OC)n(C)c1=O [Example 31]"
endpoint_result = 100

[[record]]
molecule = "CCc1nn(C(=O)NS(=O)(=O)c2c(C)csc2C(=O)OC)c(=O)n1C [Example 5]"
endpoint_result = 100


---

degree of damage to the plants (% damage vs untreated control), Matricaria overview
Tested on: Matricaria
Assay: Pre-emergence test/Greenhouse, Matricaria
Type: in vivo
Conditions: 60 g of ai./ha, after three weeks
Measurement kind: degree of damage to the plants (% damage vs untreated control), Matricaria

[[record]]
compound = "CCOC(=O)c1scc(C)c1S(=O)(=O)NC(=O)n1nc(OCC)n(CC)c1=O [Example 64]"
endpoint_result = "100%"

[[record]]
compound = "CCOn1c(CC)nn(C(=O)NS(=O)(=O)c2c(C)csc2C(=O)OC)c1=O [Example 38]"
endpoint_result = "95%"

[[record]]
compound = "CCOn1c(CC)nn(C(=O)NS(=O)(=O)c2c(C)cccc2C(=O)OC)c1=O [Example 155]"
endpoint_result = "80%"

[[record]]
compound = "CCc1nn(C(=O)NS(=O)(=O)c2c(C)csc2C(=O)OC(C)C)c(=O)n1C [Example 77]"
endpoint_result = "100%"


---

Test system: Maize
Test: Pre-emergence test/Greenhouse, Maize
Format: in vivo
Conditions: in vivo
Measurement kind: degree of damage to the plants (% damage vs untreated control), Maize (%)

[[record]]
compound = "C=CCn1c(SCCF)nn(C(=O)NS(=O)(=O)c2c(C)cccc2C(=O)OC)c1=O [Example 153]"
target_or_test_system = "Maize"
measurement_units = "%"
endpoint_result = 0

[[record]]
compound = "CCOC(=O)c1scc(C)c1S(=O)(=O)NC(=O)n1nc(OC(C)C)n(C2CC2)c1=O [Example 70]"
target_or_test_system = "Maize"
measurement_units = "%"
endpoint_result = 10

[[record]]
compound = "COC(=O)c1cccc(C)c1S(=O)(=O)NC(=O)n1nc(OCC(F)(F)F)n(C)c1=O [Example 143]"
target_or_test_system = "Maize"
measurement_units = "%"
endpoint_result = 20

[[record]]
compound = "CCOc1nn(C(=O)NS(=O)(=O)c2c(OC)cccc2C(=O)OC)c(=O)n1C [Example 136]"
target_or_test_system = "Maize"
measurement_units = "%"
endpoint_result = 30

[[record]]
compound = "CCCOc1nn(C(=O)NS(=O)(=O)c2c(C)cccc2C(=O)OC)c(=O)n1C1CC1 [Example 165]"
target_or_test_system = "Maize"
measurement_units = "%"
endpoint_result = 0

[[record]]
compound = "CCSc1nn(C(=O)NS(=O)(=O)c2c(C)csc2C(=O)OC)c(=O)n1C [Example 34]"
target_or_test_system = "Maize"
measurement_units = "%"
endpoint_result = 10

[[record]]
compound = "COC(=O)c1cccc(C)c1S(=O)(=O)NC(=O)c1noc(C)n1 [Example 9]"
target_or_test_system = "Maize"
measurement_units = "%"
endpoint_result = 0

[[record]]
compound = "CCOC(=O)c1cccc(C)c1S(=O)(=O)NC(=O)c1noc(C)n1 [Example 10]"
target_or_test_system = "Maize"
measurement_units = "%"
endpoint_result = 0

[[record]]
compound = "CCOC(=O)c1scc(C)c1S(=O)(=O)NC(=O)c1noc(C)n1 [Example 72]"
target_or_test_system = "Maize"
measurement_units = "%"
endpoint_result = 10

[[record]]
compound = "CCCOC(=O)c1cccc(C)c1S(=O)(=O)NC(=O)n1nc(OCC)n(C)c1=O [Example 21]"
target_or_test_system = "Maize"
measurement_units = "%"
endpoint_result = 0

[[record]]
compound = "Cc1cccc(C(=O)OC(C)C)c1S(=O)(=O)NC(=O)n1nc(OC(C)C)n(C)c1=O [Example 18]"
target_or_test_system = "Maize"
measurement_units = "%"
endpoint_result = 10

[[record]]
compound = "CCSc1nn(C(=O)NS(=O)(=O)c2c(C)cccc2C(=O)OC)c(=O)n1C [Example 141]"
target_or_test_system = "Maize"
measurement_units = "%"
endpoint_result = 30

[[record]]
compound = "CCOc1nn(C(=O)NS(=O)(=O)c2c(Cl)cccc2C(=O)OC)c(=O)n1C [Example 129]"
target_or_test_system = "Maize"
measurement_units = "%"
endpoint_result = 10

[[record]]
compound = "CCOC(=O)c1scc(C)c1S(=O)(=O)NC(=O)n1nc(CC)n(OCC)c1=O [Example 61]"
target_or_test_system = "Maize"
measurement_units = "%"
endpoint_result = 0

